The values you see were collected from ChEMBL document CHEMBL1629455.

The entries below are paired with their reported Activity.
system: Rattus norvegicus; experiment: Antiallodynic activity in rat spinal nerve ligation model of neuropathic pain assessed as reversal of allodynia at 10 mg/kg, po after 2 hrs; format: functional
OBSERVATION_TYPE: Activity (%)

{"CHEMICAL_STRUCTURE": "NC(=O)c1cc(C(N)=O)n(-c2cccc(-c3c(F)cccc3OC(F)(F)F)c2)n1", "ASSAY_SYSTEM": "Rattus norvegicus", "EXPERIMENTAL_VALUE": 15}
{"CHEMICAL_STRUCTURE": "NC(=O)c1cc(C(N)=O)n(-c2cccc(-c3cccc(OC(F)(F)F)c3F)c2)n1", "ASSAY_SYSTEM": "Rattus norvegicus", "EXPERIMENTAL_VALUE": 28}
{"CHEMICAL_STRUCTURE": "NC(=O)c1cc(C(N)=O)n(-c2cccc(-c3ccccc3C(F)(F)F)c2)n1", "ASSAY_SYSTEM": "Rattus norvegicus", "EXPERIMENTAL_VALUE": 9}
{"CHEMICAL_STRUCTURE": "Cc1c(C(N)=O)c(C(N)=O)nn1-c1cccc(-c2ccccc2OC(F)(F)F)c1", "ASSAY_SYSTEM": "Rattus norvegicus", "EXPERIMENTAL_VALUE": 16}
{"CHEMICAL_STRUCTURE": "Cc1cc(C(N)=O)nn1-c1cccc(-c2ccccc2OC(F)(F)F)c1", "ASSAY_SYSTEM": "Rattus norvegicus", "EXPERIMENTAL_VALUE": 33}
{"CHEMICAL_STRUCTURE": "NC(=O)c1cc(C(N)=O)n(-c2cccc(-c3cccc(OC(F)(F)F)c3OCC(F)(F)C(F)(F)F)c2)n1", "ASSAY_SYSTEM": "Rattus norvegicus", "EXPERIMENTAL_VALUE": 6}
{"CHEMICAL_STRUCTURE": "NC(=O)c1cn(-c2cccc(-c3ccccc3OC(F)(F)F)c2)nc1C(N)=O", "ASSAY_SYSTEM": "Rattus norvegicus", "EXPERIMENTAL_VALUE": 18}
{"CHEMICAL_STRUCTURE": "NC(=O)c1cc(C(N)=O)n(-c2cccc(-c3cc(F)ccc3OCC(F)(F)C(F)(F)F)c2)n1", "ASSAY_SYSTEM": "Rattus norvegicus", "EXPERIMENTAL_VALUE": 25}
{"CHEMICAL_STRUCTURE": "NC(=O)c1cc(C(N)=O)n(-c2cccc(-c3cc(C(F)(F)F)ccc3OC(F)(F)F)c2)n1", "ASSAY_SYSTEM": "Rattus norvegicus", "EXPERIMENTAL_VALUE": 29}
{"CHEMICAL_STRUCTURE": "NC(=O)c1cc(C(N)=O)n(-c2cccc(-c3ccc(F)cc3OCC(F)(F)C(F)(F)F)c2)n1", "ASSAY_SYSTEM": "Rattus norvegicus", "EXPERIMENTAL_VALUE": 28}
{"CHEMICAL_STRUCTURE": "NC(=O)c1cc(C(N)=O)n(-c2cccc(-c3ccccc3OC(F)(F)F)c2)n1", "ASSAY_SYSTEM": "Rattus norvegicus", "EXPERIMENTAL_VALUE": 35}
{"CHEMICAL_STRUCTURE": "NC(=O)c1cc(C(N)=O)n(-c2cccc(-c3cccc(C(F)(F)F)c3OCC(F)(F)C(F)(F)F)c2)n1", "ASSAY_SYSTEM": "Rattus norvegicus", "EXPERIMENTAL_VALUE": 22}
{"CHEMICAL_STRUCTURE": "NC(=O)c1cc(C(N)=O)n(-c2cccc(-c3cccc(Cl)c3Cl)c2)n1", "ASSAY_SYSTEM": "Rattus norvegicus", "EXPERIMENTAL_VALUE": 15}
